- System: P. falciparum strain 3D7
- assayName: In vitro Plasmodium growth assay
- Format: cell-based, Plasmodium falciparum
- details: Plasmodium falciparum, 3D7, 72 h
pIC50: −log10 of the molar value.

>  <lineNotation>
COc1cc(N2CCC(N3CCN(C)CC3)CC2)ccc1Nc1ncnc(Nc2ccccc2S(=O)(=O)C(C)C)n1

>  <system>
P. falciparum strain 3D7

>  <pIC50>
5.25

$$$$

----------
- system: HsLysRS (Homo sapiens, UniProt Q15046)
- Sequence (Q15046 70-581): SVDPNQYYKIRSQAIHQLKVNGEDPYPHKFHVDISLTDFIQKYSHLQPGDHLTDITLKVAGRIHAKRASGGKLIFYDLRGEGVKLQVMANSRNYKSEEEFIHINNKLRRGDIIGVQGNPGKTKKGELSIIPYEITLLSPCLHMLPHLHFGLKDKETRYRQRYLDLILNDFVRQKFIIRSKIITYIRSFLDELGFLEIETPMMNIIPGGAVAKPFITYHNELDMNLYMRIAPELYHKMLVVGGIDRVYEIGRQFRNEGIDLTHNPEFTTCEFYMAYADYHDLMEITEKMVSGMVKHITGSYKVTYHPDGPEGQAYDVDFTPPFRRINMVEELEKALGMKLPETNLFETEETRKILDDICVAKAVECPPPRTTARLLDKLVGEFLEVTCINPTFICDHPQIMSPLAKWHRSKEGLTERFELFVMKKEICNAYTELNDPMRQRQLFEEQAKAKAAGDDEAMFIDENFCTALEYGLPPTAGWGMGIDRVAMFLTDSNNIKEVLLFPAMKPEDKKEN
metricName: IC50

>  <lineNotation>
COc1cc(N2CCC(N3CCN(C)CC3)CC2)ccc1Nc1ncnc(Nc2ccccc2S(=O)(=O)C(C)C)n1

>  <system>
HsLysRS (Homo sapiens, UniProt Q15046)

>  <metricName>
IC50

>  <result>
> 250 µM

$$$$

All figures here come from paper PMC7672456.
